Each record here notes measured GI50.
Tested on: TK-10
Assay Notes: NCI tumour cell line growth inhibition, 48 h
Activity calls are given as the source filed them. Rule as the data show it: active = GI50 up to about 1.1 µM and inactive = higher.

C/C(=N\NC(=S)N1CCN(c2ccccn2)CC1)c1nccs1: 1.91 µM (inactive)
Cc1c(-c2ccccn2)ccc2ccccc12: 45.2 µM (inactive)
CCOC(=O)c1ccc(Nc2nc3ccc(C(F)(F)F)cc3nc2C(=O)OCC)cc1: > 100 µM (inactive)

Q. Sample "CC(C)c1cccc(=O)c(O)c1" — what was its GI50?
A. 1.25 µM (inactive)

Q. For "COc1ccc2cc(CNCCOCCOCCNCc3ccc4cc(OC)ccc4c3)ccc2c1" , what is its reported GI50?
A. 1.54 µM (inactive)

Q. Can you share its GI50? I mean this compound: COC(=O)C1=C(C)N(NC(=O)c2ccccc2)C(C)(O)C12CCOC2=O (configuration not stated)
A. > 100 µM (inactive)

Q. Requested read-out: GI50. Entry: Clc1ccc(C2N3CCCCC3[C@@H]3c4[nH]c5ccccc5c4CCN23)cc1 (some centres not stated)
A. > 100 µM (inactive)

Q. Returns the measured GI50 for the input compound. Input: CCCCCCC(C)CCCCCCCCCCC(=O)O (configuration not stated)
A. > 100 µM (inactive)

Q. Which GI50 reading was recorded for the compound "C1CSCCCSCCSCCCSC1" ?
A. > 100 µM (inactive)

Q. Bench note: what GI50 did "CC(=O)/C(=C/n1ccc(=O)[nH]c1=S)C(=O)Nc1ccccc1C" show?
A. > 100 µM (inactive)

Q. Consider the compound "Cc1ccc2c3c(cnc2n1)C(=O)OCCN3C" and give its measured GI50.
A. > 100 µM (inactive)

Q. Item "c1ccc2c(c1)[nH]c1c3ccccc3sc21" has what recorded GI50?
A. > 100 µM (inactive)
